As shown below, each of these binders has a reported pKd value.
- TARGET_DESC: T1, human LRRC15 extracellular domain with C-terminal His tag (human, UniProt Q8TF66 22-538)
- T1 construct: Recombinant, made in HEK293; the entry holds the extracellular domain and the His tag; SPR analyte; also called TPP-1545; hLRRC15 CT-His
- T1 sequence: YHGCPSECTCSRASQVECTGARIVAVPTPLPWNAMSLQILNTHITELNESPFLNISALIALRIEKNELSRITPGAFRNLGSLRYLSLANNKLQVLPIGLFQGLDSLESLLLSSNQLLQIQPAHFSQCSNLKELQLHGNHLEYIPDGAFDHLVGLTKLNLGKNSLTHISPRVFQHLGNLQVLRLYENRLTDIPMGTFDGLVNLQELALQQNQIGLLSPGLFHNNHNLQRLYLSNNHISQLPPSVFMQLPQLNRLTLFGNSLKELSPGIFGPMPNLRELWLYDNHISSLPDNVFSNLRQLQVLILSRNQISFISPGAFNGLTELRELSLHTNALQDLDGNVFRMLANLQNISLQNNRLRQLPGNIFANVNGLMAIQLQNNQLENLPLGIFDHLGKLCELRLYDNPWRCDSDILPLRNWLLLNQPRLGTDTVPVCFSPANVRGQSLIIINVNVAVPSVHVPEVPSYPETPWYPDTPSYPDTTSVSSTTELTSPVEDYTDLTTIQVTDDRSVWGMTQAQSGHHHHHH
- EXPERIMENT_SUMMARY: SPR Biacore T200, antibody captured, LRRC15 analyte, 37°C
pKd: −log10 of the molar value.

BINDER	pKd
TPP-17421 (antibody, human IgG1, kappa, V domains shown, also called 438H-M306-C11-hIgG1Kappa) VH: EVQLVQSGAEVKKPGASVKVSCKASGYKFSSYWIEWVKQAPGQGLEWIGEILPGSDWTNYNEKFKDRATFTSDTSINTAYMELSRLRSDDTAVYYCARDRGNYRAWFQYWGQGTLVTVSS VL: DIQMTQSPSSLSASVGDRVTITCRASQSISSYLNWYQQKPGGAPKFLIYYASSLQSGVPSRFSGSGSGTDYTLTISSLQPEDFATYYCQQGLELPWTFGGGTKVEIKR	8.62
TPP-14389 (antibody, human IgG1, kappa, V domains shown, also called 13612-rec02-hIgG1Kappa) VH: EVQLLESGGGLVQPGGSLRLSCAASGFTFSGYMMSWVRQAPGKGLEWVSGIYPSPGYTYYADSVKGRFTISRDNSKNTLYLQMNSLRAEDTAVYYCAREKASDLFGSYSEALDYWGQGTLVTVSS VL: DIQMTQSPDSLSASVGDRVTITCRASQDVGSWLAWYQQKPGKAPKLLIFAASSLESGIPSRFSGSGSGTDFTLTISSLQPEDFATYYCQQANGFPLTFGGGTKVEIKR	7.18
